target: Aryl hydrocarbon receptor (Homo sapiens); experiment: qHTS assay to identify small molecule that activate the aryl hydrocarbon receptor (AhR) signaling pathway (AID 743085); settings: HepG2 AhR-luc (HG2L7.5c1), luciferase, 24 h; series mostly up to 70.3 µM; also: nearly all actives have a fitted effect of over 15% in size;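 as to activation: HG2L7.5c1 human HepG2 liver cells with stably integrated DRE-driven firefly reporter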
Inconclusive results are not listed. The source made the active and inactive calls. Calls follow the shape of the dose curve; as a rule, active = well fitted activation curve with a large enough effect in the repeat runs; inconclusive = weak or mixed curves; inactive = no such curve, though single readings can be large or run the other way.
Give one outcome, nothing more. List: Y for active, N for inactive

Would you please look over these solved cases?
>>> assigned_category("COc1cc2ncnc(Nc3ccc(F)c(Cl)c3)c2cc1OCCCN1CCOCC1")
"Y"
>>> assigned_category("C(=C\\c1ccccc1)/CN1CCN(C(c2ccccc2)c2ccccc2)CC1")
"N"
>>> assigned_category("Cc1ccccc1N1C(=O)c2cc(S(N)(=O)=O)c(Cl)cc2NC1C (configuration not stated)")
"N"
>>> assigned_category("Fc1ccccc1[C@@H](F)COC1CCC(Nc2ncnc3[nH]ncc23)CC1 (some centres not stated)")
"N"
>>> assigned_category("Cc1c(C(=O)NN2CCCCC2)nn(-c2ccc(Cl)cc2Cl)c1-c1ccc(Cl)cc1")
"N"

q: Which result was noted for this compound in the test: Cc1cc(O)c(C(C)C)cc1Cl
a: N

q: Next entry: C[C@@H]1C[C@H]2[C@@H]3CCC4=CC(=O)C=C[C@]4(C)[C@@]3(F)[C@@H](O)C[C@]2(C)[C@@]1(O)C(=O)CO
a: N

q: Next entry: C[N+](C)(C)CCOC(N)=O
a: N

q: Next entry: CCNC(=O)N1CCN(CCCC(c2ccc(F)cc2)c2ccc(F)cc2)CC1
a: N

q: Next entry: CC1(C)C(=O)N(Br)C(=O)N1Cl
a: N

q: Next entry: CC1=CC(O)CC(C)(C)C1 (configuration not stated)
a: N
